- Assay Name: Viability qHTS for spleen associated tyrosine kinase inhibitor (SYKi) drug resistant MV4-11 cells (AID 1963824); note: nearly all actives have a fitted effect of over 35% in size
- Assay Setup: SYKi-resistant MV4-11 viability, CellTiter-Glo, 72 h; series mostly up to 45 µM
- Description: Department of Medicine, Hematology/Oncology University Hospital Frankfurt, Germany. Trials have shown promising clinical activity of the selective SYK inhibitor entospletinib in patients with high expressing HOXA9/MEIS1 acute leukemias. […] 7; Detection; Luminescence; ViewLux plate reader (PerkinElmer). […] 1. Quantitative high-throughput screening (qHTS) of small molecule compounds was conducted on drug resistant SYKi MV4-11 cell line. […] 7. Luminescence was measured on a ViewLux plate reader (PerkinElmer).
Inconclusive results are not listed. Active and inactive are the calls of the source. Calls come from the whole dose curve; as a rule, active = well fitted cell-killing curve with a large enough effect; inconclusive = small, poorly fitted or top-dose-only effect, or effect the other way; inactive = no such curve, though single readings can be large or run the other way.
Your reply should match one of these outcome classes. yes for active, no for inactive

Use these answered entries as a reference point.
Compound: CNC(=O)O[C@H]1COc2ccc(N3CCN(C4COC4)CC3)cc2[C@@H]1NC(=O)c1ccc(F)cc1
Assigned Category: no
//
Compound: CCN(CC)CCNC(=O)c1cc(Cl)c(N)cc1OC
Assigned Category: no
//
Compound: COc1ncnc(NS(=O)(=O)c2ccc(N)cc2)c1OC
Assigned Category: no
//
Compound: FC(F)(F)c1nnc2c(Sc3ccccc3)nc3ccc(Cl)cc3n12
Assigned Category: yes
//
Compound: O=C(OC[C@H]1O[C@H](O[C@H]2CO[C@H](CO)[C@@H](O)[C@@H]2O)[C@H](O)[C@@H](O)[C@H]1O)c1ccccc1
Assigned Category: no

Assay result, entry COc1cc(O)c2c(c1Cl)CC(C)OC2=O (stereo unspecified) — outcome?
no

Assay result, entry Nc1nc(N)c2nc(-c3cccc(Cl)c3)c(N)nc2n1 — outcome?
yes

Assay result, entry COc1nccnc1NS(=O)(=O)c1ccc(N)cc1 — outcome?
no

Assay result, entry CC(C)C1C(OC(=O)/C=C/c2ccccc2)CC2(C)OC2CCC2(C)OC2C1O (stereo unspecified) — outcome?
no

Assay result, entry CO[C@H]1/C=C/O[C@@]2(C)Oc3c(C)c(O)c4c(O)c(c(/C=N\N5CCN(C6CCCC6)CC5)c(O)c4c3C2=O)NC(=O)/C(C)=C\C=C\[C@H](C)[C@H](O)[C@@H](C)[C@@H](O)[C@@H](C)[C@H](OC(C)=O)[C@@H]1C — outcome?
yes

Assay result, entry CC(C)(O)C1CCC2(C)C3C(O)C4C(C13)C42CO (stereo unspecified) — outcome?
no

Assay result, entry COc1ccc(-c2cc(C(O)C3CCCCN3)c3ccccc3n2)cc1 (stereo unspecified) — outcome?
yes
